Target: human KAT II (hKAT II) enzyme (Homo sapiens)
Sequence (Q8N5Z0 30-425): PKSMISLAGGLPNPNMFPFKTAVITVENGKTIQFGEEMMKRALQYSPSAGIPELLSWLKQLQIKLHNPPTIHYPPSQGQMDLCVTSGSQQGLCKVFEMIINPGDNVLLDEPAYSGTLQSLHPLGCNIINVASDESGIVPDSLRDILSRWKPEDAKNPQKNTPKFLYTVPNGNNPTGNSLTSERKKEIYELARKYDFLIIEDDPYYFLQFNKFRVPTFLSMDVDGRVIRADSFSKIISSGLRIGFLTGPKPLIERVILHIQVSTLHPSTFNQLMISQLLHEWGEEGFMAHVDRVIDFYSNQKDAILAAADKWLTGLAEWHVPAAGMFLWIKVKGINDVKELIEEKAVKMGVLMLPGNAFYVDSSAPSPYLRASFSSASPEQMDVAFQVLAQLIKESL
Experiment: KAT II Inhibition Spectra Assay
Assay type: biochemical
Details: single determination unless marked a (geometric mean of 2-4 determinations); decrease in OD370, L-kynurenine substrate, 37° C. for 15-20 h; read-out: KATII IC50
Structures can show the parent of a compound that is named as a salt.
readout_name: IC50 (nM)

NC1Cc2cc(-c3ccccc3F)ccc2-n2c1n[nH]c2=O (centres unmarked) [Example 29, trifluoroacetate salt] | 361

I. Cn1cc(-c2ccc3c(c2)CC(N)c2n[nH]c(=O)n2-3)cn1 (centres unmarked) [Example 18, trifluoroacetate salt]
II. COc1cccc(Oc2ccc3c(c2)C[C@H](N)c2noc(=O)n2-3)c1 [Example 6, hydrochloride salt]
III. NC1Cc2cc(Oc3cccc(C(F)(F)F)c3)ccc2-n2c1n[nH]c2=O (centres unmarked) [Example 3, hydrochloride salt]
IV. COc1cncc(-c2ccc3c(c2)CC(N)c2n[nH]c(=O)n2-3)c1 (centres unmarked) [Example 13, trifluoroacetate salt]
Q. // ascending sort on recorded IC50 Provide the ranking by listing each label in its place in the requested order.
A. III, II, IV, I
(III: 91.4 nM, II: 390 nM, IV: 673 nM, I: 1360 nM)

---

Target: UniProt:Q8N5Z0
Assay: KAT II Inhibition Spectra Assay
Format: biochemical
Conditions: single determination unless marked a (geometric mean of 2-4 determinations); decrease in OD370, L-kynurenine substrate, 37° C. for 15-20 h; read-out: KATII IC50
Structures can show the parent of a compound that is named as a salt.
readout_name: IC50 (nM)

NC1Cc2cc(-c3cccc4ncccc34)ccc2-n2c1n[nH]c2=O (stereo not drawn) [Example 16, trifluoroacetate salt] | 664
Cn1cc2c(-c3ccc4c(c3)CC(N)c3n[nH]c(=O)n3-4)cccc2n1 (stereo not drawn) [Example 41, trifluoroacetate salt] | 1080
NC1Cc2cc(-c3cccc(F)c3)ccc2-n2c1n[nH]c2=O (stereo not drawn) [Example 34, trifluoroacetate salt] | 415

1. NC1Cc2cc(-c3ccccc3OC(F)(F)F)ccc2-n2c1n[nH]c2=O (stereo not drawn) [Example 37, trifluoroacetate salt]
2. NC1Cc2cc(Oc3cccc(C(F)(F)F)c3)ccc2-n2cnnc21 (stereo not drawn) [Example 10, hydrochloride salt]
3. CCOc1ccc(Cl)cc1-c1ccc2c(c1)CC(N)c1n[nH]c(=O)n1-2 (stereo not drawn) [Example 39, trifluoroacetate salt]
Q. List items by IC50 in falling order. Form entry: labels listed in requested order.
A. 3, 1, 2
(3: 968 nM, 1: 527 nM, 2: 185 nM)
